tested on: AMPK; experiment: AMPK activation assay (western blot phospho-AMPK Thr172) in 3T3-L1; format: cell-based, mouse; details: 3T3-L1 cells, 10 microM, 30 min treatment
Measured metric: AMPK activation (% to control) 3T3-L1

Could you tell me which AMPK activation (% to control) 3T3-L1 is on file for CNc1nc(O)nc2nc[nH]c12 [Example 2-hydroxy-6-methylaminopurine, 2-hydroxy-6-methylaminopurine] ?
162 % to control

Could you tell me which AMPK activation (% to control) 3T3-L1 is on file for Nc1nc(S)c2[nH]cnc2n1 [Example 2-amino-6-mercaptopurine, 2-amino-6-mercaptopurine] ?
119 % to control

Could you tell me which AMPK activation (% to control) 3T3-L1 is on file for Nc1nc(O)nc2nc[nH]c12 [Example 2-hydroxyadenine, 2-hydroxyadenine] ?
171 % to control

Could you tell me which AMPK activation (% to control) 3T3-L1 is on file for CCCNc1nc(O)nc2nc[nH]c12 [Example 2-hydroxy-6-propylaminopurine, 2-hydroxy-6-propylaminopurine] ?
129 % to control

---

Exercise: state measured AMPK activation (% to control) 3T3-L1 for each of the compounds provided.
tested on: AMPK; test: AMPK activation assay (western blot phospho-AMPK Thr172) in 3T3-L1; assay type: cell-based, mouse; settings: 3T3-L1 cells, 1 microM, 30 min treatment

Could you tell me which AMPK activation (% to control) 3T3-L1 is on file for Nc1nc(NCc2ccccc2)nc2nc[nH]c12 ?
119 % to control

Could you tell me which AMPK activation (% to control) 3T3-L1 is on file for Cc1ccc(CNc2ncnc3nc[nH]c23)cc1 ?
110 % to control

Could you tell me which AMPK activation (% to control) 3T3-L1 is on file for O=C1CCNC(=O)N1 [5,6-dihydrouracil] ?
116 % to control

---

Exercise: state measured AMPK activation (% to control) 3T3-L1 for each of the compounds provided.
tested on: AMPK; experiment: AMPK activation assay (western blot phospho-AMPK Thr172) in 3T3-L1; type: cell-based, mouse; settings: 3T3-L1 cells, 10 microM, 30 min treatment

Could you tell me which AMPK activation (% to control) 3T3-L1 is on file for O=c1cn[nH]c(=O)[nH]1 ?
115 % to control

Could you tell me which AMPK activation (% to control) 3T3-L1 is on file for Nc1nc2nc[nH]c2c(=O)[nH]1 ?
121 % to control

Could you tell me which AMPK activation (% to control) 3T3-L1 is on file for Nc1nc(F)nc2nc[nH]c12 ?
165 % to control

Could you tell me which AMPK activation (% to control) 3T3-L1 is on file for Clc1cccc(Nc2ncnc3nc[nH]c23)c1 ?
130 % to control

Could you tell me which AMPK activation (% to control) 3T3-L1 is on file for Nc1nc2[nH]cnc2c(=S)[nH]1 ?
132 % to control

Could you tell me which AMPK activation (% to control) 3T3-L1 is on file for Cc1c[nH]c(=O)nc1N ?
161 % to control

Could you tell me which AMPK activation (% to control) 3T3-L1 is on file for COc1cccc(CNc2nc(N)nc3nc[nH]c23)c1OC ?
156 % to control

Could you tell me which AMPK activation (% to control) 3T3-L1 is on file for Cc1nc(O)c2[nH]cnc2n1 [Example 2-methyl-6-hydroxypurine, 2-methyl-6-hydroxypurine] ?
144 % to control

Could you tell me which AMPK activation (% to control) 3T3-L1 is on file for O=c1[nH]c(=O)n([C@H]2C[C@H](O)[C@@H](CO)O2)cc1F ?
141 % to control

Could you tell me which AMPK activation (% to control) 3T3-L1 is on file for Oc1nc(Cl)nc2nc[nH]c12 [Example 2-chloro-6-hydroxypurine, 2-chloro-6-hydroxypurine] ?
145 % to control

Could you tell me which AMPK activation (% to control) 3T3-L1 is on file for Oc1nc(O)c2[nH]cnc2n1 [2,6-dihydroxypurine] ?
132 % to control

Could you tell me which AMPK activation (% to control) 3T3-L1 is on file for c1nc(NC2CCCCC2)c2[nH]cnc2n1 ?
152 % to control

Could you tell me which AMPK activation (% to control) 3T3-L1 is on file for CN(C)c1nc(O)c2[nH]cnc2n1 [Example 2-Dimethylamino-6-hydroxypurine, 2-Dimethylamino-6-hydroxypurine] ?
108 % to control

Could you tell me which AMPK activation (% to control) 3T3-L1 is on file for Nc1nc(Cl)nc2nc[nH]c12 ?
143 % to control

Could you tell me which AMPK activation (% to control) 3T3-L1 is on file for Oc1nc(S)nc2nc[nH]c12 [Example 2-mercapto-6-hydroxypurine, 2-mercapto-6-hydroxypurine] ?
147 % to control

Could you tell me which AMPK activation (% to control) 3T3-L1 is on file for CC(C)CCNc1nc(N)nc2nc[nH]c12 ?
169 % to control

Could you tell me which AMPK activation (% to control) 3T3-L1 is on file for CNc1nc(N)nc2nc[nH]c12 ?
135 % to control

Could you tell me which AMPK activation (% to control) 3T3-L1 is on file for Nc1nc(S)nc2nc[nH]c12 ?
128 % to control

Could you tell me which AMPK activation (% to control) 3T3-L1 is on file for Nc1cc[nH]c(=O)n1 ?
127 % to control

Could you tell me which AMPK activation (% to control) 3T3-L1 is on file for Cc1c[nH]c(=O)[nH]c1=O ?
129 % to control

Could you tell me which AMPK activation (% to control) 3T3-L1 is on file for Nc1nc(I)nc2nc[nH]c12 ?
179 % to control

Could you tell me which AMPK activation (% to control) 3T3-L1 is on file for O=c1[nH]c(Br)nc2nc[nH]c12 ?
176 % to control

Could you tell me which AMPK activation (% to control) 3T3-L1 is on file for O=c1cc[nH]c(=O)[nH]1 ?
123 % to control

Could you tell me which AMPK activation (% to control) 3T3-L1 is on file for Sc1nc(S)c2[nH]cnc2n1 ?
98 % to control

Could you tell me which AMPK activation (% to control) 3T3-L1 is on file for O=C1CCNC(=O)N1 [5,6-dihydrouracil] ?
159 % to control

Could you tell me which AMPK activation (% to control) 3T3-L1 is on file for Oc1nc(NCc2ccccc2)c2[nH]cnc2n1 [Example 2-hydroxy-6-benzylaminopurine, 2-hydroxy-6-benzylaminopurine] ?
126 % to control

Could you tell me which AMPK activation (% to control) 3T3-L1 is on file for Nc1nc(N)c2[nH]cnc2n1 ?
149 % to control

Could you tell me which AMPK activation (% to control) 3T3-L1 is on file for Oc1ncnc2nc[nH]c12 [6-hydroxypurine] ?
155 % to control

Could you tell me which AMPK activation (% to control) 3T3-L1 is on file for Oc1nc(S)c2[nH]cnc2n1 [Example 2-hydroxy-6-mercaptopurine, 2-hydroxy-6-mercaptopurine] ?
122 % to control

Could you tell me which AMPK activation (% to control) 3T3-L1 is on file for O=c1[nH]cc(F)c(=O)[nH]1 ?
113 % to control

Could you tell me which AMPK activation (% to control) 3T3-L1 is on file for O=c1[nH]cnc2nc[nH]c12 ?
128 % to control

Could you tell me which AMPK activation (% to control) 3T3-L1 is on file for Oc1nc(NC2CCCCC2)nc2nc[nH]c12 [2-cyclohexylamino-6-hydroxypurine] ?
172 % to control

Could you tell me which AMPK activation (% to control) 3T3-L1 is on file for CNc1ncnc2nc[nH]c12 ?
129 % to control

Could you tell me which AMPK activation (% to control) 3T3-L1 is on file for Nc1nc(NCc2ccccc2)nc2nc[nH]c12 ?
147 % to control

Could you tell me which AMPK activation (% to control) 3T3-L1 is on file for Nc1nc(Br)nc2nc[nH]c12 ?
188 % to control
